# System: ACHN
# protocol text: NCI tumour cell line growth inhibition, 48 h
Active and inactive are the calls of the source. No stated cut-off is given here; in the data, active = GI50 up to about 1.1 µM and inactive = higher.
measured metric: GI50

- compound: "Cc1cc(Cl)ccc1NC(=O)CCCC(=O)C1C/C(=N/O)CC/C1=N\\O (stereo not given)"
  GI50: "> 100 µM (inactive)"
- compound: "CC1=NN(C(=O)c2ccncc2)C(=O)C1/N=N/c1ccc2ccccc2c1 (stereo not given)"
  GI50: "> 100 µM (inactive)"
- compound: "COc1ccc2nc(-c3cccc(N(C)C)c3)cc(O)c2c1"
  GI50: "0.618 µM (active)"
- compound: "C[C@]12CC/C(=N\\OC(=O)Nc3ccccc3)C=C1CC[C@@H]1C2CC[C@@]2(C)C1CC[C@@H]2OC(=O)Nc1ccccc1 (stereo not given in full)"
  GI50: "99.3 µM (inactive)"
- compound: "COC(=O)/C1=C/C2CC(/C=C(/c3ccccc3)C(=O)O1)C2"
  GI50: "26.3 µM (inactive)"
- compound: "Nc1ccc(C(=O)NN2C(=O)C(Cl)C2c2ccccc2Cl)cc1 (stereo not given)"
  GI50: "16.4 µM (inactive)"
- compound: "Cc1c(Cl)c(=O)oc2cc(OCC(O)COC(C)C)ccc12 (stereo not given)"
  GI50: "44.1 µM (inactive)"
- compound: "CC(C)N(C(=O)C12C3C4C1C1C2C3C41C(=O)C(C)(C)C)C(C)C (stereo not given)"
  GI50: "> 100 µM (inactive)"
- compound: "O=C1C2Cc3ccccc3CN2C(=O)N1CN1CCCCC1 (stereo not given)"
  GI50: "> 100 µM (inactive)"

Attention now turns to another entry.
# GI50 of CCN(CC)CCN1C(=O)c2c(c(-c3ccccc3)c3ccccc3c2-c2ccccc2)C1=O = > 100 µM (inactive)

###

# Tested on: NCI-H460
# protocol text: NCI tumour cell line growth inhibition, 48 h
Calls of active or inactive are those of the source. Rule as the data show it: active = GI50 up to about 1.1 µM and inactive = higher. Where a SMILES comes first, the peptide text is derived from it. [ ]: non-standard residue; d: D form. The star is where a group is joined. Bn2Val = CC(C)[C@@H](C(=O)*)N(Cc1ccccc1)Cc1ccccc1; NH(4-F-benzyl) = Fc1ccc(CN*)cc1; NMeV = CN[C@H](C(=O)O)C(C)C; dNMeA = CN[C@H](C)C(=O)O
measured metric: GI50

Previously resolved entries follow.
- molecule: "COC(=O)n1c(C[P+](c2ccccc2)(c2ccccc2)c2ccccc2)cc2ccccc21"
  test system: "NCI-H460"
  measured metric: "GI50"
  data value: "1.43 µM (inactive)"
- molecule: "Cc1cccc(C)c1NC(=O)C(=O)Nn1c(NN)nc2ccccc2c1=O"
  test system: "NCI-H460"
  measured metric: "GI50"
  data value: "> 100 µM (inactive)"
- molecule: "Cc1ncc([N+](=O)[O-])n1CCNCCCn1ccnc1[N+](=O)[O-]"
  test system: "NCI-H460"
  measured metric: "GI50"
  data value: "> 100 µM (inactive)"
- molecule: "CC(NC(=O)c1ccc(Cl)c(Cl)c1)c1ccc(-c2ccccc2)cc1 (centres undefined)"
  test system: "NCI-H460"
  measured metric: "GI50"
  data value: "47.4 µM (inactive)"

State the recorded GI50 for every item in the following list.
1. CC(C)[Si](OC1=C(C(=O)Nc2ccccc2Cl)CCCCC1)(C(C)C)C(C)C
2. O=C(O)CC(CC(=O)O)C(=O)O
3. CC1(C)CC2CC(CC(C)(C)C2=O)C1=O
4. CC(=O)NCC1(c2ccccc2)CCN(CC2COc3ccccc3O2)CC1 (centres undefined)

> 100 µM (inactive)
> 100 µM (inactive)
> 100 µM (inactive)
> 100 µM (inactive)

Answer for every listed entry: what is its GI50? The entries follow.
1. CC(C)[C@]12O[C@H]1[C@@H]1O[C@@]13[C@@]1(C)CCC4=C(COC4=O)[C@@H]1C[C@@H]1O[C@@]13C2=O [TRIPTONIDE]
2. Nc1nn(CC(O)CO)c(=O)s1 (centres undefined)
3. CC(C)[C@H](NC(=O)[C@H](C(C)C)N(Cc1ccccc1)Cc1ccccc1)C(=O)N(C)[C@H](C(=O)N1CCC[C@H]1C(=O)N(C)[C@H](C)C(=O)NCc1ccc(F)cc1)C(C)C (Bn2Val-V[NMeV]P[dNMeA]-{NH(4-F-benzyl)})
4. CCN(CC)CCNC(=O)c1cc2cc(NC(=O)c3cc4cc(N)ccc4[nH]3)ccc2[nH]1
5. COc1cc(OC)cc(-n2c(N)c(-c3nc4ccccc4s3)c3ccc([N+](=O)[O-])cc3c2=O)c1
6. CCn1ncc2c1nc(-c1ccccc1)c[n+]2[O-]
7. Cc1nn(C)c2nc3ccc(Cl)cc3c(-c3ccccc3)c12
8. CC1=NN(C(=O)CC(=O)Nc2ccccc2)C(=O)C1/N=N/c1ccc(S(N)(=O)=O)cc1 (centres undefined)

1: < 0.01 µM (active); 2: > 100 µM (inactive); 3: 4 µM (inactive); 4: 34.6 µM (inactive); 5: 32.7 µM (inactive); 6: > 100 µM (inactive); 7: > 100 µM (inactive); 8: 92.5 µM (inactive)

I would be grateful if you could provide GI50 for each of the following entries.
1. NNC(=O)C(O)C(O)C(O)CO (centres undefined)
2. O=P1(N2CCOCC2)OCCO1
3. Cc1cc(N(CCC#N)CCC#N)ccc1/C=N\c1ccc(C(=O)NN2C(=O)/C(=C/c3ccc(N(CCC#N)CCC#N)cc3)N=C2c2cc([N+](=O)[O-])ccc2Cl)cc1

> 100 µM (inactive)
> 100 µM (inactive)
> 100 µM (inactive)

Values were extracted from ChEMBL document CHEMBL1201862.
